Overview of recorded FACS Cell Binding (Fold Above Background) for various molecules
- targetEntity: T1, HEK293/hPRLR (Homo sapiens, UniProt P16471)
- T1 construct: HA; expressed in transfected cells; host or cells: HEK293
- T1 sequence (P16471 25-622): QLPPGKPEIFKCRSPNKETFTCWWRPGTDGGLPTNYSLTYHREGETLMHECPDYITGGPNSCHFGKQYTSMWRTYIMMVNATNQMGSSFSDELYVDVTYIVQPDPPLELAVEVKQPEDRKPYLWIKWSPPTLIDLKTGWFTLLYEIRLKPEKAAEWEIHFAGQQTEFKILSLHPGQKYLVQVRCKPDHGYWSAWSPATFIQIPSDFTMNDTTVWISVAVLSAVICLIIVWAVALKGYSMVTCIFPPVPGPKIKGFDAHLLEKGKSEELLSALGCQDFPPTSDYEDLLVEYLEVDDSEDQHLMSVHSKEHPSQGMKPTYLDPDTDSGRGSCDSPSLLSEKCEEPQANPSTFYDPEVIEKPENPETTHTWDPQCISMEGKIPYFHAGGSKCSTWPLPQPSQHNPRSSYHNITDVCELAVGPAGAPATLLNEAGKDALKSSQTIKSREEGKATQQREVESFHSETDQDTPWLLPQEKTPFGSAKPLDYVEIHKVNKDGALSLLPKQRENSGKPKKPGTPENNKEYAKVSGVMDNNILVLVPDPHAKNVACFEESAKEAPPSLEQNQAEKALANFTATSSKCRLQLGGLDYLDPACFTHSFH
- assayText: FACS cell surface binding
Write it as a number; the unit Fold Above Background goes unstated.

H1H6790P: anti-PRLR antibody, human IgG1 Fc; HCVR/LCVR SEQ ID NOs 114/122 (antibody, V domains shown, human IgG1 Fc) VH: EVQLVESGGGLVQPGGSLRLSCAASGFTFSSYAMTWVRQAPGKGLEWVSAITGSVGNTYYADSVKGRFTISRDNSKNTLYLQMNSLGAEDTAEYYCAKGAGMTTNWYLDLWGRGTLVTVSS VL: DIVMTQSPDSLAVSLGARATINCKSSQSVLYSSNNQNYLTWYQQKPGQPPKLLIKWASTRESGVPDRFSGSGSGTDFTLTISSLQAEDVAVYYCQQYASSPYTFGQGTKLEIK	37
H1H6797P: anti-PRLR antibody, human IgG1 Fc; HCVR/LCVR SEQ ID NOs 178/186 (antibody, V domains shown, human IgG1 Fc) VH: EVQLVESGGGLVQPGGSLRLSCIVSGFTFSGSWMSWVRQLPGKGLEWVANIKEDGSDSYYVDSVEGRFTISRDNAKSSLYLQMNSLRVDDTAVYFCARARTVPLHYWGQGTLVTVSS VL: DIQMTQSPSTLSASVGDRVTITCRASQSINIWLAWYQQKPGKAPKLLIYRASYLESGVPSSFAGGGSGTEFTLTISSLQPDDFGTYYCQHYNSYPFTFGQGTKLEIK	1

# input for lookup
FACS Cell Binding (Fold Above Background) measured on H1H6795P: anti-PRLR antibody, human IgG1 Fc; HCVR/LCVR SEQ ID NOs 162/170 (antibody, V domains shown, human IgG1 Fc) VH: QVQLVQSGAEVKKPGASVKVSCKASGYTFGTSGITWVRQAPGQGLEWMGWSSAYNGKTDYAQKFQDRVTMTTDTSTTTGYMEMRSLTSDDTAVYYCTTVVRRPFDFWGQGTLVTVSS VL: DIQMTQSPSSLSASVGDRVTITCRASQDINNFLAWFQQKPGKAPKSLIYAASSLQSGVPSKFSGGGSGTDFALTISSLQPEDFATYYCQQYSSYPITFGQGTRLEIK = 1

Source: patent US9688764B2
